For each entry below, report its pKi value.
Note on units: pKi is unitless, being -log10 of a concentration expressed in mol/L.

// map CCc1ccc(CCOc2ccc(CC3SC(=O)NC3=O)cc2)nc1 (stereo not drawn) [Compound 13] to recorded pKi (system: UniProtKB P22748)
Sequence (P22748 19-312): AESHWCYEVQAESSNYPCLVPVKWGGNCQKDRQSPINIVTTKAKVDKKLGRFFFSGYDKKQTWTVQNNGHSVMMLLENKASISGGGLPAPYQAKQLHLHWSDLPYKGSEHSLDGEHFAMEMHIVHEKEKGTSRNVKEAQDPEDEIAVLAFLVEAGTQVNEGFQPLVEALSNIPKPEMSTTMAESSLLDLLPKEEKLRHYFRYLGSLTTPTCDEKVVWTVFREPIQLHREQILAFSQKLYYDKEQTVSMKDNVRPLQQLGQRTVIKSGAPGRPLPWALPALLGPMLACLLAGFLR
4.04

# value lookup — system UniProtKB P22748, readout pKi, item CN(CCOc1ccc(CC2SC(=O)NC2=O)cc1)c1ccccn1 (stereo not drawn) [Compound 12]
4.23

---

# system_name: hCA VI (Homo sapiens)
# Sequence (P23280 18-308): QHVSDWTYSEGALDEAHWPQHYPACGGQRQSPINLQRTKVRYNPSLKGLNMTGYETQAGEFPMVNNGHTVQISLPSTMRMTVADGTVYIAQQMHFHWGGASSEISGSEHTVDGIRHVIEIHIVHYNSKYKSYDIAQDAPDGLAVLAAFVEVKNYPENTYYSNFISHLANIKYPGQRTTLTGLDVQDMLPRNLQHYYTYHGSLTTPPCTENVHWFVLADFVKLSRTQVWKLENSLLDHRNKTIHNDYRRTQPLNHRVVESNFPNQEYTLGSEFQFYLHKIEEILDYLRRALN
Please provide measured pKi for the entries that follow.
Keep in mind that pKi stands for -log10 of concentration in molar terms.

# lookup: pKi of Cc1c(C)c2c(c(C)c1O)CCC(C)(COc1ccc(CC3SC(=O)NC3=O)cc1)O2 (racemic)
4.33

Would you kindly share the measured pKi for CCc1ccc(CCOc2ccc(CC3SC(=O)NC3=O)cc2)nc1 (stereo not drawn) ?
4.70

Quick one: pKi of CN(CCOc1ccc(CC2SC(=O)NC2=O)cc1)c1ccccn1 (stereo not drawn) ?
5.23
